experimental protocol: Probe fluorescence ratio response to stearic acid relative to ADIFAB2
Format: binding
test conditions: response relative to ADIFAB2
Description: In an alternate preferred embodiment, the protein is rI-FABP that has Ala substituted for Leu at position 72 (rI-FABP-L72A) with the resulting probe named ADIFAB2. […] ADIFAB2 also has an altered spectral response, making it especially useful for measurements of FFAu in blood samples (Apple et al, Clinical Proteomics, (2004) 1:41-44, U.S. patent application Ser. No. 10/670,958). […] The baseline value for this ratio, measured in the absence of analyte, is designated R0. […]
measurement label: DR/DR SA
Answers are plain numbers.

Sample answers from the record:
72S 74A (protein, listed as Rattus norvegicus, PEPTIDE (1)...(131) wild-type rat intestinal fatty acid binding protein) AFDGTWKVDRNENYEKFMEKMGINVVKRKLGAHDNLKLTITQEGNKFTVKESSNFRNIDVVFELGVDFAYSSAAGTELTGTWTMEGNKLVGKFKRVDNGKELIAVREISGNELIQTYTYEGVEAKRIFKKE; 1.114
72V 73W 74S (protein, listed as Rattus norvegicus, PEPTIDE (1)...(131) wild-type rat intestinal fatty acid binding protein) AFDGTWKVDRNENYEKFMEKMGINVVKRKLGAHDNLKLTITQEGNKFTVKESSNFRNIDVVFELGVDFAYSVWSGTELTGTWTMEGNKLVGKFKRVDNGKELIAVREISGNELIQTYTYEGVEAKRIFKKE; 0.574

Shifting focus to the molecule that follows.
Note to self: DR/DR SA recorded for 72T 74S (protein, listed as Rattus norvegicus, PEPTIDE (1)...(131) wild-type rat intestinal fatty acid binding protein) AFDGTWKVDRNENYEKFMEKMGINVVKRKLGAHDNLKLTITQEGNKFTVKESSNFRNIDVVFELGVDFAYSTASGTELTGTWTMEGNKLVGKFKRVDNGKELIAVREISGNELIQTYTYEGVEAKRIFKKE was 1.779
